Recorded values, source patent US8299296B2.

testTarget: human GPR40 (Homo sapiens, UniProt O14842)
Sequence (O14842 whole entry): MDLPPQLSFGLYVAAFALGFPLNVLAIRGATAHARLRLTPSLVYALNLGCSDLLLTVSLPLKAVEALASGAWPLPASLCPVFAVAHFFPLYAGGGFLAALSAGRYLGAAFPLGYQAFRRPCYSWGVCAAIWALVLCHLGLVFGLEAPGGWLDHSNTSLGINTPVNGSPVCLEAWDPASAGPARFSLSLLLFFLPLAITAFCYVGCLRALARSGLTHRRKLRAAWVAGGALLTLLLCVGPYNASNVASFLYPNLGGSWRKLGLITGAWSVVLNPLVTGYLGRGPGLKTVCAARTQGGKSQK
measurementDescription: Ca2+ mobilization (FLIPR) in a stable GPR40-expressing cell; GPR40 agonist activity
testParameters: compound concentration corresponding to 50% PosiC, 100% = intracellular calcium level induced by 80 μM palmitic acid
assayMetric: EC50

Worked cases, answers included:
Give recorded EC50. CC1(C)CCCCC12CCCC(COc1ccc(CCC(=O)O)cc1)C2 (racemic)
1000 to 10000 nM

Please indicate EC50 recorded for CC#C[C@@H](CC(=O)O)c1ccc(OCC2CCC3(CCCC3)C2)cc1 (mixture of isomers)
100 to 1000 nM

Supply measured EC50 of O=C(O)CC(CO)c1ccc(OCC2CCCC3(CCCCC3)C2)cc1 (racemic) in your reply.
1000 to 10000 nM

Recall and state the measured EC50 for `CC#C[C@@H](CC(=O)O)c1ccc(OCC2=CCC3(CCCC3)CC2)cc1` .
100 to 1000 nM

Find the measured EC50 of `CC#C[C@@H](CC(=O)O)c1ccc(OCC2CCC3(CCCC3)CC2)cc1` and report it.
100 to 1000 nM

Continuing:
Provide only the value of recorded EC50 for CCOC(CC(=O)O)c1ccc(OCC2=CC3(CCCCC3)CCC2)cc1 (single isomer, unassigned; (-)) [Example 42]
10 to 100 nM

Recall and state the measured EC50 for `CC#C[C@H](CC(=O)O)c1ccc(OCC2=CC3(CCCC3)CCC2)cc1` .
1000 to 10000 nM

Return the recorded EC50 value; entry: CC#C[C@@H](CC(=O)O)c1ccc(OCC2CCCCC23CCCCC3)cc1 (mixture of isomers)
1000 to 10000 nM

###

Known EC50 of a selection of molecules
testTarget: UniProt O14842
measurementDescription: Ca2+ mobilization (FLIPR) in a stable GPR40-expressing cell; GPR40 agonist activity
testParameters: compound concentration corresponding to 50% PosiC, 100% = intracellular calcium level induced by 80 μM palmitic acid
Structures can show the parent of a compound that is named as a salt.

// solved cases for EC50 follow
Specify EC50 for CC#C[C@@H](CC(=O)O)c1ccc(OCC2=CC3(CCCCC3)CCC2)cc1 [Example 9] and stop.
0.1 to 1 µM

Quickly give me recorded EC50 for Cc1cc(OCC2=CC3(CCCC3)CCC2)ccc1CCC(=O)O [Example 109]
1 to 10 µM

Next:
Give the measured EC50 for CC1(C)CCCC2(CCCC(COc3ccc(CCC(=O)O)cc3)C2)C1 (racemic) [Example 48]
1 to 10 µM

Give EC50 for CCOC(CC(=O)O)c1ccc(OCC2=CC3(CCCCC3)CCC2)cc1 (single isomer, unassigned; (+)) [Example 44]
1 to 10 µM

Please list EC50 recorded for the molecule CNC(=O)C(CC(=O)O)c1ccc(OCC2CCCC3(CCCCC3)C2)cc1 (racemic) [Example 65]
1 to 10 µM

Item CC#C[C@@H](CC(=O)O)c1ccc(OCC2CCC3(CCCCC3)C2)cc1 (stereo partly drawn) [Example 27, sodium salt] : provide EC50
0.1 to 1 µM

Using the record for O=C(O)CCc1ccc(OCC2CCC3(CCCCC3)C2)cc1 (racemic) [Example 52] , state its measured EC50.
1 to 10 µM

Entry CC#C[C@@H](CC(=O)O)c1ccc(OCC2=CC3(CCCC3)CCC2)cc1 [Example 8, sodium salt] needs its EC50 filled in; supply it.
0.1 to 1 µM

Fill in reported EC50 for this entry: O=C(O)CCc1ccc(OCC2CCCC3(CCCCC3)C2)cc1 (single isomer, unassigned) [Example 89]
1 to 10 µM

Give EC50 for CC#C[C@@H](CC(=O)O)c1ccc(OCC2=C[C@@]3(CCC2)CC[C@@H](O)C3)cc1 [Example 101, sodium salt]
0.1 to 1 µM

Kindly indicate its recorded EC50. Item: CC#C[C@H](CC(=O)O)c1ccc(OCC2CCCC3(CCCCC3)C2)cc1 (mixture of isomers) [Example 58]
1 to 10 µM
